# study.system: T1, recombinant c-Met extracellular domain (R&D Systems cat#358-MT-100/CF) (UniProt P08581 25-932)
# T1 chain: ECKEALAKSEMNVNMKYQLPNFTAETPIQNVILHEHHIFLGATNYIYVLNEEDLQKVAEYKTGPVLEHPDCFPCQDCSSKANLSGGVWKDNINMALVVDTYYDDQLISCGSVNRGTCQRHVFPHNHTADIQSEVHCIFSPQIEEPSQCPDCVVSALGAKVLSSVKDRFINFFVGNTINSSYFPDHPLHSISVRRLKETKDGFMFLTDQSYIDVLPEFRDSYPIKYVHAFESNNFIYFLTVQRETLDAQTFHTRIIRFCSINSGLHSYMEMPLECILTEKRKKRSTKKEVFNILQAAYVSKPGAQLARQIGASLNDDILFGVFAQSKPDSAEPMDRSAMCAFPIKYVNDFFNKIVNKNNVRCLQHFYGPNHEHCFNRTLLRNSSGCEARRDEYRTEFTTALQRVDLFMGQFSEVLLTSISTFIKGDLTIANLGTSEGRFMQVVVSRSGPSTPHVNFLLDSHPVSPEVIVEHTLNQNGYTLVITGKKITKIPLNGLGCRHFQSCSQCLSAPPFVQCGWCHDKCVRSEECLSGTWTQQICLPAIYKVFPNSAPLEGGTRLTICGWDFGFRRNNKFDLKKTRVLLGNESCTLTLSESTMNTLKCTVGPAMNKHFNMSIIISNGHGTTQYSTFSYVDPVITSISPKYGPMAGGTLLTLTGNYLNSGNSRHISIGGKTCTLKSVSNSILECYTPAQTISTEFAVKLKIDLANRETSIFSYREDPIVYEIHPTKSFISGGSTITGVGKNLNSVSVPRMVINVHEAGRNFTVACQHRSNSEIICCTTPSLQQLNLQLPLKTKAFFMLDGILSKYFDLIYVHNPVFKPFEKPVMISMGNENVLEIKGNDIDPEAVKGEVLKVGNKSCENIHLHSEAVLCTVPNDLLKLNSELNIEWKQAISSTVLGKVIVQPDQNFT
# method: ELISA, blocking of HGF binding to c-Met
Reported values of pIC50 for individual entries
Entry type: numeric. Quantity: pIC50, the -log10 of concentration in molar units.

// worked examples, pIC50 included
# binder, pIC50
data = [
    ("A1-2 anti-c-Met antibody (antibody, V domains shown) VH: QVQLQESGPGLVKPSQTLSLTCTVSGGSISSGGYYWSWIRQHPGKGLEWIGESTHSGSTNYNPSLKSRVTISVDTSKNQFSLKLSSVTAADTAVYYCARGRDGYDFDAWGQGTLVTVSS VL: LPVLTQPASVSGSPGQSITISCTGTSFDVGGYNYVSWYQQHPGKAPKLMIYDVSDRPSGVSTRFSGSKSGNTASLTISGLQAEDEADYYCSSFRSSSALVVFGGGTKLTVL", 8.92),
    ("A1-4 anti-c-Met antibody (antibody, V domains shown) VH: QVQLQESGPGLVKPSQTLSLTCTVSGGSISSGGYYWSWIRQHPGKGLEWIGESSHSGSTNYNPSLKSRVTISVDTSKNQFSLKLSSVTAADTAVYYCARGRDGYYFDAWGQGTLVTVSS VL: LPVLTQPASVSGSPGQSITISCTGTSSDVGGYPYVSWYQQHPGKAPKLMIYVVSDRPSGVSTRFSGSKSGNTASLTISGLQAEDEADYYCSSYRSSSALVVFGGGTQLTVL", 8.84),
]

Now, please, on to the next binder.
Prompt: // returns reported pIC50 for input A1-24 anti-c-Met antibody (antibody, V domains shown) VH: QVQLQESGPGLVKPSQTLSLTCTVSGGSISSGGYYWSWIRQHPGKGLEWIGESTHSGSTNYNPSLESRVTISVDTSKNQFSLKLSSVTAADTAVYYCARGRDSYDFDAWGQGTLVTVSS VL: LPVLTQPASVSGSPGQSITISCTGTSFDVGGYNYVSWYQQHPGKAPKLMIYDVSDRPSGVSTRFSGSKSGNTASLTISGLQAEDEADYYCSSFRSSAALVVFGGGTKLTVL
Completion: 8.82
